# PROTOCOL_DETAILS: Cutaneous treatment of male rats
# Type: in vivo, rat
# EXPERIMENTAL_SETUP: rat, in vivo, topical or ocular, read-out: LD50 cutaneously
ATTRIBUTE_MEASURED: LD50

Please give the measured LD50 for this compound: Cc1ccc(N(SC(F)(Cl)Cl)S(=O)(=O)N(C)C)cc1 > 500 mg/kg

---

# PROTOCOL_DETAILS: Peroral toxicity, single administration by probang to male rats
# EXPERIMENTAL_SETUP: rat, in vivo, po, dissolved in acetone, Probit analysis, read-out: LD50 perorally
ATTRIBUTE_MEASURED: LD50

Please give the measured LD50 for this compound: Cc1ccc(N(SC(F)(Cl)Cl)S(=O)(=O)N(C)C)cc1 > 2500 mg/kg
